System: eIF4E S209 phosphorylation
Experiment: AlphaScreen Surefire eIF4E S209 phosphorylation assay in PANC-1 cells
Assay type: cell-based
Conditions: PANC cells, 4E-BP1 protein levels low, normalised to GAPDH; read-out: pEIF4E SureFire (IC50)

{"QUERY SMILES": "Nc1ncnc2n[nH]c(Nc3ccc(F)cc3)c12", "TESTED TARGET": "eIF4E S209 phosphorylation", "IC50": "6.2 µM"}

* * *

System: eIF4E S209 phosphorylation
Experiment: AlphaScreen Surefire eIF4E S209 phosphorylation assay in PC-3 cells
Format: cell-based
Settings: PC3 cells, 4E-BP1 protein levels high, normalised to GAPDH; read-out: pEIF4E SureFire (IC50)
pIC50: −log10 of the molar value.

{"QUERY SMILES": "Nc1ncnc2n[nH]c(Nc3ccc(F)cc3)c12", "pIC50": 5.52}
